Every entry's value here was drawn from the supplement of paper PMC9112550.

Tested on: Escherichia coli TOP10;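 note: peptides expressed intracellularly from a pBAD plasmid library in pooled LB shake-flask culture, induced with 0.3% L-arabinose, DNA abundance read by NGS, three biological replicates, DESeq2 with apeglm shrinkage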
Experiment: shrunken log2 fold change of peptide-encoding DNA abundance (4.5 h post-induction vs induction); higher = less antimicrobial activity (less host growth inhibition)
Details: time post-induction: 4.5 h; library: site-saturation at positions 5, 18, 19, 20
Is shrunken log2 fold change at least 0.01? Then t. If not, f.

{"primary sequence": "RRIRDRPPRLPRPRPRPQREPRP", "class label": "f"}
{"primary sequence": "RRIRERPPRLPRPRPRPSREPRP", "class label": "t"}
{"primary sequence": "RRIRKRPPRLPRPRPRPFNHPRP", "class label": "f"}

Then this sequence:
input: Could you verify whether the entry `RRIRFRPPRLPRPRPRPLEYPRP` shows shrunken log2 fold change of no less than 0.01?
output: f
